Cited source: paper doi:10.1101/2023.02.14.528391v1

System Name: hERG potassium channel (Homo sapiens, UniProt Q12809)
Sequence (Q12809 whole entry): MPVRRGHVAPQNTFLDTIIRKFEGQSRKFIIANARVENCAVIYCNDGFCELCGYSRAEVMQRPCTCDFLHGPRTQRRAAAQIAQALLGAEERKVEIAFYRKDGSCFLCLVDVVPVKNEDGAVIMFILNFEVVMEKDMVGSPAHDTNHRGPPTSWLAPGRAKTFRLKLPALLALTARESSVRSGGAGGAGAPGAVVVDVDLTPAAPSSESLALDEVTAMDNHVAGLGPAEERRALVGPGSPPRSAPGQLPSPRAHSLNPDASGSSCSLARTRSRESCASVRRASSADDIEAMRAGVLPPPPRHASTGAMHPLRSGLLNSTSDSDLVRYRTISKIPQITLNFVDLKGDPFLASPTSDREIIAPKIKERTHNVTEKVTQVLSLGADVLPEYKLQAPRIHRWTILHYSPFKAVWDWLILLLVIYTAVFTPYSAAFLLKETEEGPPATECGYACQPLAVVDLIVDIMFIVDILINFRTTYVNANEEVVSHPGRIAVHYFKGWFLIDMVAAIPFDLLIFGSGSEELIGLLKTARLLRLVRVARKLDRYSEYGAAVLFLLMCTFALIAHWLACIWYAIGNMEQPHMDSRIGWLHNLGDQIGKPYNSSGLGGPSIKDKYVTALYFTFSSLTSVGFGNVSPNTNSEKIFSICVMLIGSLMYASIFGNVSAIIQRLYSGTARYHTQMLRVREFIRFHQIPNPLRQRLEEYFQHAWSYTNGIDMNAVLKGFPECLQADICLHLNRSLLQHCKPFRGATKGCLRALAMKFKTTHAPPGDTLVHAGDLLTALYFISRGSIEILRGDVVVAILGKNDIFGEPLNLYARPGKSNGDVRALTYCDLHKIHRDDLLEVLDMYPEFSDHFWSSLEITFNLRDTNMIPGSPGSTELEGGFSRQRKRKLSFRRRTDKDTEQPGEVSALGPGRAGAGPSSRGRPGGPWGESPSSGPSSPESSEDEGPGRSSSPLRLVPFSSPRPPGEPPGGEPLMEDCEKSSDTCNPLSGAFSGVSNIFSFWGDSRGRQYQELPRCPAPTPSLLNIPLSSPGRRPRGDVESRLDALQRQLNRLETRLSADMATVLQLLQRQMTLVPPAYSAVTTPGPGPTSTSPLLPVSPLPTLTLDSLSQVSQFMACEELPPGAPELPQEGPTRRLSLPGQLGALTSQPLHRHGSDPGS
Method Notes: biochemical
Settings: hERG / Ki (nM), Synthesis=Enamine
Assay Endpoint: Ki
Remember to quote the unit after the number.

Given the entry "CN(C)CCCN(CCCN(C)C)c1ccc2c(Br)ccc(Cl)c2n1" , report its measured Ki. 2300 nM

Dear colleague, I am looking for the recorded Ki of the following compound: "CN(C)CCN(Cc1cccc(Cl)c1)c1ncncc1Cl" 507 nM

Which measured Ki value corresponds to "CN(C)CCCN(Cc1ccc(Cl)c(Cl)c1)c1ncc(Cl)cc1[N+](=O)[O-]" ? 729 nM

Can you share its Ki? I mean this compound: "CN(C)CCN(Cc1ccccc1F)C(=O)N1CCCc2c(Cl)ccnc21" 300 nM

Given the compound "CN(C)CCCn1nc(-c2ccccc2)c2ccccc2c1=O" , what is its reported Ki? 2620 nM

Any idea what Ki was measured for "CN(C)CCN(Cc1cccs1)c1nccc(F)c1Cl" ? 5180 nM

What value of Ki has been reported for the following compound? "CSc1nccc(N(CCCN(C)C)Cc2ccc(Cl)c(Cl)c2)n1" 772 nM

Param item = "CN(C)CCN(Cc1cccc(Cl)c1)c1cncc(Cl)n1" ; retrieve measured Ki. 1180 nM

* * *

Assignment: determine reported inhibition at 10 µM for the given compounds.
System Name: hERG potassium channel (Homo sapiens)
Method Notes: in vitro
Settings: % inhibition
Reply numerically in %, unit not repeated.

Please give the measured inhibition at 10 µM for this compound: "CN(C)CCn1nc(-c2cccnc2)c2ccccc2c1=O" 2.87

For the compound "CN(C)CCN(Cc1ccccc1F)C(=O)c1csc2ccccc12" , what inhibition at 10 µM is on record? 55.6

Would you kindly share the measured inhibition at 10 µM for "CSc1ncccc1-c1nn(CCN(C)C)c(=O)c2ccccc12" ? 44.2

Fill in: inhibition at 10 µM of "CN(C)CCCn1nc(-c2cccs2)c2ccccc2c1=O" is ___ 81.7

Which inhibition at 10 µM is reported for this compound? "CN(C)CCCn1nc(-c2cccc(Cl)c2)c2ccccc2c1=O" 92.5

* * *

System Name: hERG potassium channel (Homo sapiens, UniProt Q12809)
Method Notes: in vitro
Settings: % inhibition
Assay Endpoint: inhibition at 10 µM (%)
Report the figure in % without appending any unit label.

Value wanted: inhibition at 10 µM (hERG potassium channel (Homo sapiens, UniProt Q12809)) of entry "CN(C)CCn1nc(-c2ccncc2)c2ccccc2c1=O" 15

Requested read-out inhibition at 10 µM, target or system hERG potassium channel (Homo sapiens, UniProt Q12809), entry "Cc1ccc2cc(C(=O)N(CCN(C)C)Cc3ccccc3F)ccc2n1" 21.8

Provide value of inhibition at 10 µM for this record tested with hERG potassium channel (Homo sapiens, UniProt Q12809): "CN(C)CCN(Cc1cccc(OCc2ccc(F)cc2)c1)Cc1nccn1C" 91.3

GET /values?readout=inhibition at 10 µM&system=hERG potassium channel (Homo sapiens, UniProt Q12809)&item= "CN(C)CCCN(C)Cc1c(-c2ccccc2F)nn(C)c1Cl" 17.6

// lookup inhibition at 10 µM | system=hERG potassium channel (Homo sapiens, UniProt Q12809) | key= "CN(C)CCN(Cc1cccc(Cl)c1)C(=O)N1CCSc2ccncc21" 75.9

# query: inhibition at 10 µM | item "CN(C)CCCn1nc(-c2cncc(Cl)c2)c2ccccc2c1=O" | system: hERG potassium channel (Homo sapiens, UniProt Q12809) 80.4

* * *

System Name: hERG potassium channel (Homo sapiens, UniProt Q12809)
Method Notes: in vitro
Settings: % inhibition
Bucketed by reported inhibition at 10 µM, buckets being bucket A (below 20%), bucket B (20% to below 60%), bucket C (60% or more)

Record CN(C)CCN(Cc1ccc(F)c(F)c1)C(=O)c1ccnc(Cl)c1Cl [s_22____2224104____12421166] — which class? bucket B

Hi, small favor: classify CSc1nccc(N(CCCN(C)C)Cc2ccc(Cl)c(Cl)c2)n1 [s_27____7425384____15607934] by its inhibition at 10 µM when you get a moment. bucket C

Exam item: assign CN(C)CCN(Cc1cccc(F)c1)C(=O)CSc1nc2ccccc2n1C [s_22____2224108____339636] to the correct category. bucket C

Lab log: CC(=Cc1ccccc1Cl)C(=O)N(CCN(C)C)c1ccccn1 [s_11____17828754____7832710] — assign inhibition at 10 µM category bucket B

Into which category would you place CN(C)CCN(Cc1cccs1)Cc1cc2cnn(C)c2nc1Cl [s_270004____10206112____16971162] ? bucket C

Lab log: CN(C)CCCN(Cc1ccc(Cl)c(Cl)c1)C(=O)c1nccc2ncccc12 [s_527____1500312____14775532] — assign inhibition at 10 µM category bucket B

Which category does the recorded inhibition at 10 µM put CN(C)CCCSc1nnc(-c2cnccn2)n1-c1ccc(Cl)cc1 [s_7____7285292____9475634] in? bucket B

Which bin, given its inhibition at 10 µM, does CN(C)CCc1nc2ccccc2n1Cc1ccc(F)c(F)c1 [GMD_9634] occupy? bucket A

Input CN(C)CCn1nc(-c2cccs2)c2ccccc2c1=O [NBI1099533] ; output its category bucket A

Any idea which band "CN(CCN(C)C(=O)c1cccnc1N(C)C)Cc1cccc(Cl)c1" is in? bucket A

Assign a category based on measured inhibition at 10 µM for CN(C)c1ncccc1CN1CCN(C(=O)c2c(Cl)cccc2Cl)CC1 [s_270004____8133704____10229386] and give only the class name. bucket A

For this compound, which bin applies? CN(C)CCN(Cc1ccccc1)Cc1nc2ccccc2n1C [s_270004____10205888____7548808] bucket C

* * *

System Name: hERG potassium channel (Homo sapiens)
Method Notes: biochemical
Settings: hERG / IC50 (nM), Synthesis=Enamine
Strictly below 1000 nM in IC50: met. Otherwise: not met.

IC50 strictly < 1000 nM for this molecule? "CN(C)CCN(Cc1ccccc1)c1nc2cccc(F)c2s1" not met

# strict comparison: is reported IC50 < 1000 nM? input = "CN(C)CCN(Cc1cccc(Cl)c1)c1ncncc1Cl" met

I wonder whether "CN(C)CCN(Cc1cccs1)c1ccncc1Cl" has IC50 below 1000 nM. Can you tell? not met

In the record for "CN(C)CCN(Cc1cccs1)c1nccc(F)c1Cl" , is IC50 less than 1000 nM? not met

Find out if reported IC50 for "CN(C)CCCN(CCCN(C)C)c1ccc2c(Br)ccc(Cl)c2n1" is less than 1000 nM not met

Here's an entry: "CN(C)CCN(Cc1ccccc1)Cc1nc2ccccc2n1C" . Is its IC50 below 1000 nM? not met

Please state whether IC50 is below 1000 nM for "CN(C)CCN(Cc1ccccc1F)Cc1c(Cl)ccc2cccnc12" met

Say whether its IC50 is strictly beneath 1000 nM. Entry: "CN(C)CCCN(Cc1ccc(Cl)c(Cl)c1)c1ncnc2ccn(C)c12" met

Is IC50 strictly under 1000 nM for the entry "CN(C)CCCN(Cc1ccc(Cl)c(Cl)c1)c1nccc2cccnc12" ? met

Identify whether the molecule "CN(C)CCCn1nc(-c2ccc(F)cc2)c2ccccc2c1=O" records IC50 below 1000 nM. not met

Hello, is IC50 of the following molecule strictly smaller than 1000 nM? "CN(C)CCN(Cc1ccccc1F)C(=O)N1CCCc2c(Cl)ccnc21" met

Strictly below 1000 nM: is that where IC50 of "CCc1csc(N(CCCN(C)C)Cc2ccc(Cl)c(Cl)c2)n1" sits? not met

hey, is IC50 for "CN(C)CCN(Cc1cccc(Cl)c1)c1nccc2cnccc12" lower than 1000 nM or not? met

Decide: IC50 of "CN(C)CCN(Cc1cccc(F)c1)Cc1c(Cl)ccc2cccnc12" strictly below 1000 nM? met

* * *

What inhibition at 10 µM was measured for each of the following?
System Name: UniProt:Q12809
Method Notes: in vitro
Settings: % inhibition
Could you give me the number in %? Just the number is fine.

Name the reported inhibition at 10 µM value associated with the molecule "CN(C)CCN(C)c1nc2ccccc2n1Cc1ccccc1F" 40.7

Find the recorded inhibition at 10 µM belonging to "CN(C)CCN(Cc1ccccc1)C(=O)c1ncccc1Cl" and report it. 9.12

Which inhibition at 10 µM value belongs to "CN(C)CCn1nc(-c2ccccn2)c2ccccc2c1=O" ? 16.6
